Subject of test: OAT1 (Homo sapiens)
Method notes: [14C]-PAH uptake and its inhibition in HEK293-Flp-In OAT1 cells
Settings: IC50, 3 h, inhibition of PAH uptake via OAT1, 9.5 µM [14C]-PAH; after 3 h preincubation with inhibitor; Lab. 2
Experimental: All uptake experiments were performed on 24- or 96-well plates. […] The dry plates were covered with transparent seals and analyzed using a TopCount NXT Microplate Scintillation and Luminescence Counter (Perkin Elmer, Waltham, MA, USA). […] The total protein content was measured by using a BCA protein assay kit and a FLUOStar Omega fluorescence microplate reader (BMG Labtech, Ortenberg, Germany). […]
Outcome measure: pIC50
pIC50 here is simply -log10 of the concentration when that concentration is written in mol/L.

Ask | Value lookup for pIC50; key = CC(=O)NCCCS(=O)(=O)O [acamprosate, acetylhomotaurinate]
Reply | 3.24

---

Subject of test: OAT1 (Homo sapiens)
Method notes: [14C]-PAH uptake and its inhibition in HEK293-Flp-In OAT1 cells
Settings: OAT1 inhibiting Ki-value
Outcome measure: pKi
Note on units: pKi is unitless, being -log10 of a concentration expressed in mol/L.

Ask | Form: Entry = CC(=O)NCCCS(=O)(=O)O [acamprosate, acetylhomotaurinate] | System = OAT1 (Homo sapiens) | pKi = ____
Reply | 3.20

---

Subject of test: OAT1 (Homo sapiens)
Method notes: [14C]-PAH uptake and its inhibition in HEK293-Flp-In OAT1 cells
Settings: log IC50 ± log S.E.M., inhibition of PAH uptake via OAT1, 9.5 µM [14C]-PAH; 5 min; Lab. 1; log of IC50 in µM
Outcome measure: IC50 (µM)
Your answer should be a plain number; it is taken to be in µM.

Ask | # input molecule: CC(=O)NCCCS(=O)(=O)O [acamprosate, acetylhomotaurinate] ; wanted: its IC50
Reply | 1260

---

Subject of test: OAT1 (Homo sapiens)
Sequence (Q4U2R8 1-563): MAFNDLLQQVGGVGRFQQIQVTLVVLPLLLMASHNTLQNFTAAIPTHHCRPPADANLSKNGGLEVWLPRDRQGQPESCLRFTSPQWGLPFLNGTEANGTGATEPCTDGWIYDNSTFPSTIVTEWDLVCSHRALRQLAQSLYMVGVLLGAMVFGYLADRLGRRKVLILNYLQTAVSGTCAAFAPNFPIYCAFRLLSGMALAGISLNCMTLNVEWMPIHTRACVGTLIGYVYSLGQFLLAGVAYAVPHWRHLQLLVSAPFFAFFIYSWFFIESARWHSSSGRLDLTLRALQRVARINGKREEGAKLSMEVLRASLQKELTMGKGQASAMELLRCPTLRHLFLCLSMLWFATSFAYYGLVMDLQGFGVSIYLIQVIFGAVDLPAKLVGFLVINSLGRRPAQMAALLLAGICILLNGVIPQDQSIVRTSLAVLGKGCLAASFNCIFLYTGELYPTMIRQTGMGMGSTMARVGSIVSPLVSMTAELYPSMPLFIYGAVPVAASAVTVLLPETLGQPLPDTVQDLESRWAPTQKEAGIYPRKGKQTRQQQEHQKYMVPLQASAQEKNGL
Method notes: [14C]-PAH uptake and its inhibition in HEK293-Flp-In OAT1 cells
Settings: log IC50 ± log S.E.M., 3 h, inhibition of PAH uptake via OAT1, after 3 h preincubation; Lab. 2; log of IC50 in µM
Outcome measure: IC50 (µM)
Dear colleague, please return just the value in µM, with no unit written.

Ask | Could you tell me which IC50 is on file for CC(=O)NCCCS(=O)(=O)O [acamprosate, acetylhomotaurinate] ?
Reply | 631
